// provenance: patent US20160137730A1

Field: Kd. Provide a value for each of the binders that follow.
target: T1, Human P-cadherin (CDH3) D1-5 (human, UniProt P22223 108-652); experiment: SPR Biacore, ADC captured via Protein A, ECD-6xHis analyte, 25C, 1:1 fit
T1 construct: Human CDH3 residues 108-652 with a C-terminal 6xHis tag, made in Tn5 insect cells with baculovirus (NM_001793.4, NP_001784); It may include a secretion signal and vector residues, as the printed cyno constructs do; no cleavage site is stated; also called human pCAD-6xHis; human P-cadherin ECD
T1 sequence (P22223 108-652 limits assumed): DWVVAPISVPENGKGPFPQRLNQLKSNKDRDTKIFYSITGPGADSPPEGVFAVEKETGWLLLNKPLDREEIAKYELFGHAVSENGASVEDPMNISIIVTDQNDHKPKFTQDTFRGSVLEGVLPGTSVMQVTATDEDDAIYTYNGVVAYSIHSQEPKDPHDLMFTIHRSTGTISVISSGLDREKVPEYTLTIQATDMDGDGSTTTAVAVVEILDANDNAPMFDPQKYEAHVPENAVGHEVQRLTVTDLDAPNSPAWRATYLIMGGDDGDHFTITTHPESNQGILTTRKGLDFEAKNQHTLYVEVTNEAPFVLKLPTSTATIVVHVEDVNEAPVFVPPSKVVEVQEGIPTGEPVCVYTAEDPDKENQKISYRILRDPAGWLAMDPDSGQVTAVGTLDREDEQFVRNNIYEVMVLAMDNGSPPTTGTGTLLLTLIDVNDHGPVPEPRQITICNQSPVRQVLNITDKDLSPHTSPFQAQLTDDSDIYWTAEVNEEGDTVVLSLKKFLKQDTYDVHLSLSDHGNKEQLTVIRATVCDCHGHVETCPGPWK
All answers are understood in nM, so give the number only.

Query: I am curious: what Kd value has been reported for NEG0064-MCC-DM1 (antibody, human IgG1, kappa, V domains shown, DM1 (maytansinoid) attached through the MCC linker to primary amines of the antibody; sites not given, Antibody drug conjugate in Ab-MCC-DM1 format; also called NEG0064 ADC) VH: QIQLVQSGAEVKKPGSSVKVSCKVSGYTFTDHTLHWMRQAPGQGLEWMGYIYPRSGSTKYNENFRGRVTITADTSSSTAYMELSSLRSEDTAVYYCVRRLLFLPLDYWGQGTLVTVSS VL: EIVMTQSPATLSLSPGERATLSCRSSQSLLSSGNQKSYLTWYQQKPGQAPRLLIYWASTRESGIPARFSGSGSGTDFTLTISSLQPEDFAVYYCQNDYSYPFTFGQGTKLEIKR ?
Result: 4.4

Query: I am curious: what Kd value has been reported for NEG0067-MCC-DM1 (antibody, human IgG1, kappa, V domains shown, DM1 (maytansinoid) attached through the MCC linker to primary amines of the antibody; sites not given, Antibody drug conjugate in Ab-MCC-DM1 format; also called NEG0067 ADC) VH: QIQLVQSGAEVKKPGSSVKVSCKVSGYTFTDHTLHWMRQAPGQGLEWMGYIYPRSGSTKYNENFKGRVTITADTSSSTAYMELSSLRSEDTAVYYCVRRLLFLPLDYWGQGTLVTVSS VL: EIVMTQSPATLSLSPGERATLSCRSSQSLLSSGNQKSYLTWYQQKPGQAPRLLIYWASTRESGIPARFSGSGSGTDFTLTISSLQPEDFAVYYCQNDYSYPFTFGQGTKLEIKR ?
Result: 6

Query: I am curious: what Kd value has been reported for NEG0012-MCC-DM1 (antibody, human IgG1, kappa, V domains shown, DM1 (maytansinoid) attached through the MCC linker to primary amines of the antibody; sites not given, Antibody drug conjugate in Ab-MCC-DM1 format; also called NEG0012 ADC) VH: EVQLVQSGAEVKKPGESLKISCKVSGYTFTDHTIHWMRQMPGKGLEWMGYIYPRSGSINYNEKFKGQVTISADKSSSTAYLQWSSLKASDTAMYYCARRNLFLPMEYWGQGTLVTVSS VL: DIVMTQTPLSLPVTPGEPASISCRSSQSLLSSGDQKNYLTWYLQKPGQSPQLLIYWASTRESGVPDRFSGSGSGTDFTLKISRVEAEDVGVYYCQNDYRYPLTFGQGTKLEIKR ?
Result: 31.3

Query: I am curious: what Kd value has been reported for NEG0016-MCC-DM1 (antibody, human IgG1, kappa, V domains shown, DM1 (maytansinoid) attached through the MCC linker to primary amines of the antibody; sites not given, Antibody drug conjugate in Ab-MCC-DM1 format; also called NEG0016 ADC) VH: QIQLVQSGAEVKKPGSSVKVSCKVSGYTFTDHTLHWMRQAPGQGLEWMGYIYPRSGSTKYNENFRGRVTITADTSSSTAYMELSSLRSEDTAVYYCARRLLFLPLDYWGQGTLVTVSS VL: EIVMTQSPATLSLSPGERATLSCRSSQSLLSSGNQKSYLTWYQQKPGQAPRLLIYWASTRESGIPARFSGSGSGTDFTLTISSLQPEDFAVYYCQNDYSYPFTFGQGTKLEIKR ?
Result: 54

Query: I am curious: what Kd value has been reported for NOV169N31Q-MCC-DM1 (antibody, human IgG1, kappa, V domains shown, DM1 (maytansinoid) attached through the MCC linker to primary amines of the antibody; sites not given, MAR 3.7 (one-step process), 3.15 (in situ process), target DAR 3.8; also called NOV169N31Q ADC) VH: QVQLQQSGPGLVKPSQTLSLTCAISGDSVSSQSAAWNWIRQSPSRGLEWLGRIYYRSKWYNDYALSVKSRITINPDTSKNQFSLQLNSVTPEDTAVYYCARGEGYGREGFAIWGQGTLVTVSS VL: DIQMTQSPSSLSASVGDRVTITCRASQTISNTLAWYQQKPGKAPKLLIYAASNLQSGVPSRFSGSGSGTDFTLTISSLQPEDFATYYCQQYLSWFTFGQGTKVEIKR ?
Result: 27

Query: I am curious: what Kd value has been reported for NEG0013-MCC-DM1 (antibody, human IgG1, kappa, V domains shown, DM1 (maytansinoid) attached through the MCC linker to primary amines of the antibody; sites not given, Antibody drug conjugate in Ab-MCC-DM1 format; also called NEG0013 ADC) VH: EVQLVQSGAEVKKPGESLKISCKVSGYTFTDHTIHWMRQMPGKGLEWMGYIYPRSGSINYNEKFKGQVTISADKSSSTAYLQWSSLKASDTAMYYCARRNLFLPMEYWGQGTLVTVSS VL: DIVMTQTPLSLPVTPGEPASISCRSSQSLLSSGNQKNYLTWYLQKPGQSPQLLIYWASTRESGVPDRFSGSGSGTDFTLKISRVEAEDVGVYYCQNDYSYPLTFGQGTKLEIKR ?
Result: 36
